testedSystem: T1, Human CD3eg linker (human)
T1 construct: Single chain: epsilon and gamma subunits of human CD3 joined by a 29-mer linker, Flag-tag at the C-terminus; also called recombinant human CD3
T1 chain: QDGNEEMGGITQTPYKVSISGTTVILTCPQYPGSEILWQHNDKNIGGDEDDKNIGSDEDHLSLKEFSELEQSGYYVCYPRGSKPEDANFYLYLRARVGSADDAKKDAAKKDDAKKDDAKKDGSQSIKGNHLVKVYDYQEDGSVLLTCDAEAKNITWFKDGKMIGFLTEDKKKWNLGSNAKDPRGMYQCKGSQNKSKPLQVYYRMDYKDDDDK
assayText: Biacore SPR, vs template H183/L072
metricName: fold change of affinity

{"binder": "H183/L072 VH I51R (antibody, name in Kabat numbering, V domains shown) VH: QVQLVESGGGLVQPGRSLRLSCAASGFTFSNAWMHWVRQAPGKGLEWVAQRKDKGNAYAAYYAPSVKGRFTISRDDSKNSIYLQMNSLKTEDTAVYYCHYVHYASASTVLPAFGVDAWGQGTTVTVSS VL: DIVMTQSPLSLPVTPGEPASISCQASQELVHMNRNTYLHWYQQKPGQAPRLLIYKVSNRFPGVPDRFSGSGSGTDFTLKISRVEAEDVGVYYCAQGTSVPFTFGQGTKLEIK", "testResult": "0 fold"}
{"binder": "H183/L072 VH H35S (antibody, name in Kabat numbering, V domains shown) VH: QVQLVESGGGLVQPGRSLRLSCAASGFTFSNAWMSWVRQAPGKGLEWVAQIKDKGNAYAAYYAPSVKGRFTISRDDSKNSIYLQMNSLKTEDTAVYYCHYVHYASASTVLPAFGVDAWGQGTTVTVSS VL: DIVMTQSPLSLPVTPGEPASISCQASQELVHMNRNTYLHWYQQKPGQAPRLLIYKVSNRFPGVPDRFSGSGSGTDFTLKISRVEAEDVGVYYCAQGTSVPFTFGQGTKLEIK", "testResult": "0.5 fold"}
{"binder": "H183/L072 VH A60Y (antibody, name in Kabat numbering, V domains shown) VH: QVQLVESGGGLVQPGRSLRLSCAASGFTFSNAWMHWVRQAPGKGLEWVAQIKDKGNAYAAYYYPSVKGRFTISRDDSKNSIYLQMNSLKTEDTAVYYCHYVHYASASTVLPAFGVDAWGQGTTVTVSS VL: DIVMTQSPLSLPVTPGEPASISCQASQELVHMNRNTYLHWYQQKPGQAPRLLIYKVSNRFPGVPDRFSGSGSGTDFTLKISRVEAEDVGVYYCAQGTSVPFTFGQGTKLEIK", "testResult": "0.7 fold"}
{"binder": "H183/L072 VH L100dM (antibody, name in Kabat numbering, V domains shown) VH: QVQLVESGGGLVQPGRSLRLSCAASGFTFSNAWMHWVRQAPGKGLEWVAQIKDKGNAYAAYYAPSVKGRFTISRDDSKNSIYLQMNSLKTEDTAVYYCHYVHYASASTVMPAFGVDAWGQGTTVTVSS VL: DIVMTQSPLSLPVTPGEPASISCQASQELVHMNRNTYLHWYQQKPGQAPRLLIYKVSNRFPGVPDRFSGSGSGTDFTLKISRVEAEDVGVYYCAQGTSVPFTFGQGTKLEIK", "testResult": "1 fold"}
{"binder": "H183/L072 VH W33H (antibody, name in Kabat numbering, V domains shown) VH: QVQLVESGGGLVQPGRSLRLSCAASGFTFSNAHMHWVRQAPGKGLEWVAQIKDKGNAYAAYYAPSVKGRFTISRDDSKNSIYLQMNSLKTEDTAVYYCHYVHYASASTVLPAFGVDAWGQGTTVTVSS VL: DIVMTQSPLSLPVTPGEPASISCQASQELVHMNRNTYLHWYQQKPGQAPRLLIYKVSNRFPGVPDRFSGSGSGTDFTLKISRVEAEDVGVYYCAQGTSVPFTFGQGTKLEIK", "testResult": "0 fold"}
{"binder": "H183/L072 VH Q50A (antibody, name in Kabat numbering, V domains shown) VH: QVQLVESGGGLVQPGRSLRLSCAASGFTFSNAWMHWVRQAPGKGLEWVAAIKDKGNAYAAYYAPSVKGRFTISRDDSKNSIYLQMNSLKTEDTAVYYCHYVHYASASTVLPAFGVDAWGQGTTVTVSS VL: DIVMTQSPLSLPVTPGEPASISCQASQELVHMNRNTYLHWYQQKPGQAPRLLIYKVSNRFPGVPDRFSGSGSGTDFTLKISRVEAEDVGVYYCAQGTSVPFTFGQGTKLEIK", "testResult": "0 fold"}
{"binder": "H183/L072 VH T28G (antibody, name in Kabat numbering, V domains shown) VH: QVQLVESGGGLVQPGRSLRLSCAASGFGFSNAWMHWVRQAPGKGLEWVAQIKDKGNAYAAYYAPSVKGRFTISRDDSKNSIYLQMNSLKTEDTAVYYCHYVHYASASTVLPAFGVDAWGQGTTVTVSS VL: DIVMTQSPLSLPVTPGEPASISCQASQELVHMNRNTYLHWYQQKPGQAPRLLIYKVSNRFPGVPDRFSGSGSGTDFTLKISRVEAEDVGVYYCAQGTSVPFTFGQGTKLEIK", "testResult": "0.7 fold"}
{"binder": "H183/L072 VH N53P (antibody, name in Kabat numbering, V domains shown) VH: QVQLVESGGGLVQPGRSLRLSCAASGFTFSNAWMHWVRQAPGKGLEWVAQIKDKGPAYAAYYAPSVKGRFTISRDDSKNSIYLQMNSLKTEDTAVYYCHYVHYASASTVLPAFGVDAWGQGTTVTVSS VL: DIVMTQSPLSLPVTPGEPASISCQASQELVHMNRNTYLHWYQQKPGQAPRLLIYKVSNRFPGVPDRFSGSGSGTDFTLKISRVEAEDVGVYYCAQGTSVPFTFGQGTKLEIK", "testResult": "0 fold"}
{"binder": "H183/L072 VH K52P (antibody, name in Kabat numbering, V domains shown) VH: QVQLVESGGGLVQPGRSLRLSCAASGFTFSNAWMHWVRQAPGKGLEWVAQIPDKGNAYAAYYAPSVKGRFTISRDDSKNSIYLQMNSLKTEDTAVYYCHYVHYASASTVLPAFGVDAWGQGTTVTVSS VL: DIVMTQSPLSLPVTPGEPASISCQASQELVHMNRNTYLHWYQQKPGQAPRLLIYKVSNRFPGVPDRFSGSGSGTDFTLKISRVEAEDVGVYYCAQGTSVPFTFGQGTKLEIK", "testResult": "0 fold"}
{"binder": "H183/L072 VH A60G (antibody, name in Kabat numbering, V domains shown) VH: QVQLVESGGGLVQPGRSLRLSCAASGFTFSNAWMHWVRQAPGKGLEWVAQIKDKGNAYAAYYGPSVKGRFTISRDDSKNSIYLQMNSLKTEDTAVYYCHYVHYASASTVLPAFGVDAWGQGTTVTVSS VL: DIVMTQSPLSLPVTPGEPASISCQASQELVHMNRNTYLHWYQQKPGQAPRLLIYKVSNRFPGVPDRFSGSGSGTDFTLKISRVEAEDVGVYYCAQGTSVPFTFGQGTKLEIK", "testResult": "1.9 fold"}
